Assayed Target: Human immunodeficiency virus type 1 reverse transcriptase (Human immunodeficiency virus 1, UniProt Q72547, Y188L)
Experimental Details: Inhibition of HIV1 reverse transcriptase Y188L mutant
This section presents compounds with their documented Ki values.
Enter your answer as a number in µM; do not include the unit.

>>> print(df.to_string())
                                   compound  measured_parameter  numeric_readout
0  COc1ccccc1N1CCN(c2nc(Cc3c(F)cccc3F)c(C)c(=O)[nH]2)CC1                  Ki             25.7
1  Cc1c(C(C)c2c(F)cccc2F)nc(N2CCSCC2)[nH]c1=O (stereo unspecified)                  Ki                4
2  CCCN(C)c1nc(C(C)c2c(F)cccc2F)c(C)c(=O)[nH]1 (stereo unspecified)                  Ki             1.43

Here is the next item to consider.
What the record says about CCN(C)c1nc(C(C)c2c(F)cccc2F)c(C)c(=O)[nH]1 (stereo unspecified) : Ki is 4

====

Assayed Target: Human immunodeficiency virus type 1 reverse transcriptase (Human immunodeficiency virus 1, UniProt Q72547, K103N)
Experimental Details: Inhibition of HIV1 reverse transcriptase K103N mutant
Measured Parameter: log10(Ki) (log10 of the value in nM)
Values reflect log10 of reported Ki (nM).

Observe how each entry below is paired with its result.
                                   compound  measured_parameter  numeric_readout
0  CCN(C)c1nc(C(C)c2c(F)cccc2F)c(C)c(=O)[nH]1 (configuration not stated)           log10(Ki)             2.70
1  Cc1c(C(C)c2c(F)cccc2F)nc(N(C)C)[nH]c1=O (configuration not stated)           log10(Ki)             2.70
2  CCc1c(C(C)c2c(F)cccc2F)nc(N(C)C)[nH]c1=O (configuration not stated)           log10(Ki)             3.30
3  CCC(c1cc(=O)[nH]c(N(C)C)n1)c1c(F)cccc1F (configuration not stated)           log10(Ki)             4.00
4  Cc1c(C(C)c2c(F)cccc2F)nc(N2CCSCC2)[nH]c1=O (configuration not stated)           log10(Ki)             4.00

What the record says about CN(C)c1nc(Cc2c(F)cccc2F)cc(=O)[nH]1 : log10(Ki) is 3.48

What the record says about CCCN(C)c1nc(C(C)c2c(F)cccc2F)c(C)c(=O)[nH]1 (configuration not stated) : log10(Ki) is 2.23

What the record says about CCCNc1nc(C(C)c2c(F)cccc2F)c(C)c(=O)[nH]1 (configuration not stated) : log10(Ki) is 2.67

====

This section presents compounds with their documented Ki values.
Assayed Target: Human immunodeficiency virus type 1 reverse transcriptase (Human immunodeficiency virus 1, UniProt Q72547, Y188L)
Experimental Details: Inhibition of HIV1 reverse transcriptase Y188L mutant
Enter your answer as a number in µM; do not include the unit.

Observe how each entry below is paired with its result.
                                   compound  measured_parameter  unit_abbrev  numeric_readout
0  CCC(c1cc(=O)[nH]c(N(C)C)n1)c1c(F)cccc1F (stereo unspecified)                  Ki           µM                5
1  Cc1c(C(C)c2c(F)cccc2F)nc(N2CCCCC2)[nH]c1=O (stereo unspecified)                  Ki           µM              3.5
2      Cc1c(Cc2c(F)cccc2F)nc(N(C)C)[nH]c1=O                  Ki           µM               11

Here is the next item to consider.
What the record says about CCc1c(C(C)c2c(F)cccc2F)nc(N(C)C)[nH]c1=O (stereo unspecified) : Ki is 10
